Where these numbers come from: the RNAGym collection of RNA variant scans (doi:10.1073/pnas.2313332121)

B1: TPR 5TU (parent)
chain: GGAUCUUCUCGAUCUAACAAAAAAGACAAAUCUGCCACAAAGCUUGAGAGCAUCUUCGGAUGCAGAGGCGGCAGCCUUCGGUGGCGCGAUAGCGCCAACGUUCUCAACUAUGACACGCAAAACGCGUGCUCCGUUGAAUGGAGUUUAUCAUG

Variants of: B1
Assay: polymerase ribozyme fitness, log enrichment relative to wild type (log ratio); higher = more active; in vitro selection for triplet polymerase activity
Fewer inactive variants are shown than the library holds.
endpoint: polymerase ribozyme fitness (log ratio)

polymerase ribozyme fitness (log ratio) reported for this variant A49U A110U G117U : ≤ -4.2

polymerase ribozyme fitness (log ratio) reported for this variant A26U G46U A47U G74C C79G G92U G140A : ≤ -4.2

polymerase ribozyme fitness (log ratio) reported for this variant U31C A60C G92A C99A : ≤ -4.2

polymerase ribozyme fitness (log ratio) reported for this variant A30U A60C G62A C76A C96G U127G G143C : ≤ -4.2

polymerase ribozyme fitness (log ratio) reported for this variant U55G C57U C63G A66U G94C U104G : ≤ -4.2

polymerase ribozyme fitness (log ratio) reported for this variant C36U A142G : -2.16

polymerase ribozyme fitness (log ratio) reported for this variant C118G U144A : -0.0459

polymerase ribozyme fitness (log ratio) reported for this variant U6A C38G G42C G86U C93U U127A : ≤ -4.2

polymerase ribozyme fitness (log ratio) reported for this variant G25C C87A G100U : ≤ -4.2

polymerase ribozyme fitness (log ratio) reported for this variant G88C C116U : -3.99

polymerase ribozyme fitness (log ratio) reported for this variant A49G U101C C114G U134C : -3.89
